Please go through the items and note down their binding signal.
Biological target: GST-Aq-NF-kB (Amphimedon queenslandica, UniProt A9Y5G7 2-389)
Sequence: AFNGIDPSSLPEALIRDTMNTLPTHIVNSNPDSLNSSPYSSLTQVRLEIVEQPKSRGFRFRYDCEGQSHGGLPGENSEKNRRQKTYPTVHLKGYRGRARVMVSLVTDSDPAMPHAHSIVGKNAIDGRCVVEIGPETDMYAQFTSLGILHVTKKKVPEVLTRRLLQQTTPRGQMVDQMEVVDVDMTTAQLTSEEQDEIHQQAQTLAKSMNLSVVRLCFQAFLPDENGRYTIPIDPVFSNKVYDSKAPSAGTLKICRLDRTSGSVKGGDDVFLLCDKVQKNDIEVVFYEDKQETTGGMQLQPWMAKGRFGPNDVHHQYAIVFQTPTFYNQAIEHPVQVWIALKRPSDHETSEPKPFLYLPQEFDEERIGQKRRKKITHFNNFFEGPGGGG
Assay: protein-binding microarray (PBM); PBM: ~300 nM protein, 6 mM HEPES pH 7.8, 80 mM KCl, 0.5 mM EDTA, 0.5 mM EGTA, 6% glycerol, 35 ng/ul poly-dIdC, 1% milk, 1 h, room temperature; Ap Aiptasia and Nv Nematostella (sea anemones) / Co Capsaspora / Aq Amphimedon (sponge) / Dm Drosophila / Hu human; RHD is the Rel homology domain; high values mean tight binding
Conditions: dsDNA, one strand shown
Entry rule: numbers only, all in z-score.

Query: Tell us which binding signal value is on record for "CCGATTAACATCAGGGAAATATATGATGTTAATCGGGTCTTGATTCGCTTGACGCTGCTG"
Result: 6.09

Query: Answer with the recorded binding signal for the sequence listed here: "CCGATTAACATCACTTCCCCCCATGATGTTAATCGGGTCTTGATTCGCTTGACGCTGCTG"
Result: 3.86

Query: Supply binding signal value. Item: "CCGATTAACATCATAATCCCCCATGATGTTAATCGGGTCTTGATTCGCTTGACGCTGCTG"
Result: 5.96

Query: For the sequence "CCGATTAACATCAGGGAAAAGTATGATGTTAATCGGGTCTTGATTCGCTTGACGCTGCTG" , report binding signal.
Result: 3.86

Query: Quote binding signal reported for "CCGATTAACATCAAGGGTGGGAATGATGTTAATCGGGTCTTGATTCGCTTGACGCTGCTG" please.
Result: 2.63

Query: Supply reported binding signal belonging to this sequence: "CCGATTAACATCAGGGCACCCCCTGATGTTAATCGGGTCTTGATTCGCTTGACGCTGCTG"
Result: 7.23

Query: Give the reported value of binding signal for this record: "CCGATTAACATCAAGGGAATGCCTGATGTTAATCGGGTCTTGATTCGCTTGACGCTGCTG"
Result: 4.2

Query: Provide only the value of recorded binding signal for "CCGATTAACATCAGGGAACTTTATGATGTTAATCGGGTCTTGATTCGCTTGACGCTGCTG"
Result: 5.17

Query: Recall and state the measured binding signal for "CCGATTAACATCAGAAAATCACCTGATGTTAATCGGGTCTTGATTCGCTTGACGCTGCTG" .
Result: 3.39

Query: State its binding signal: "CCGATTAACATCAGGGATTTCTATGATGTTAATCGGGTCTTGATTCGCTTGACGCTGCTG"
Result: 4

Query: Provide binding signal value for the following sequence: "CCGATTAACATCAAAAAACACCCTGATGTTAATCGGGTCTTGATTCGCTTGACGCTGCTG"
Result: 5.32

Query: Determine from records and report binding signal for "CCGATTAACATCATTGTCCCTTCTGATGTTAATCGGGTCTTGATTCGCTTGACGCTGCTG"
Result: 2.67

Query: Tell us which binding signal value is on record for "CCGATTAACATCAGGAACTTCCATGATGTTAATCGGGTCTTGATTCGCTTGACGCTGCTG"
Result: 1.63

Query: Name the recorded binding signal of the item "CCGATTAACATCAGGACCGTCCCTGATGTTAATCGGGTCTTGATTCGCTTGACGCTGCTG" in your answer.
Result: 6.42

Query: Return the recorded binding signal value; entry: "CCGATTAACATCAAAAAATACCCTGATGTTAATCGGGTCTTGATTCGCTTGACGCTGCTG"
Result: 8.03

Query: Retrieve binding signal measured for "CCGATTAACATCAGGGCTTTACCTGATGTTAATCGGGTCTTGATTCGCTTGACGCTGCTG" and print it.
Result: 3.97

Query: Report measured binding signal; entry is "CCGATTAACATCAATTTCCCCCGTGATGTTAATCGGGTCTTGATTCGCTTGACGCTGCTG"
Result: 6.15

Query: Look up and state reported binding signal for "CCGATTAACATCAATTACCCCCCTGATGTTAATCGGGTCTTGATTCGCTTGACGCTGCTG"
Result: 5.14

Query: Name the recorded binding signal of the item "CCGATTAACATCAAGATTCCCCCTGATGTTAATCGGGTCTTGATTCGCTTGACGCTGCTG" in your answer.
Result: 7.31

Query: Indicate its recorded binding signal; the sequence in question is "CCGATTAACATCAAGGGAACCCCTGATGTTAATCGGGTCTTGATTCGCTTGACGCTGCTG"
Result: 5.18

Query: Specify reported binding signal for the sequence shown: "CCGATTAACATCAGGGGGATACATGATGTTAATCGGGTCTTGATTCGCTTGACGCTGCTG"
Result: 4.35

Query: Answer with the recorded binding signal of "CCGATTAACATCAGAAGATCCCCTGATGTTAATCGGGTCTTGATTCGCTTGACGCTGCTG" only.
Result: 6.44

Query: Entry "CCGATTAACATCACGGGAACACCTGATGTTAATCGGGTCTTGATTCGCTTGACGCTGCTG" needs its binding signal filled in; supply it.
Result: 2.73

Query: Please look at this sequence and report its binding signal: "CCGATTAACATCAACGTCCCCCCTGATGTTAATCGGGTCTTGATTCGCTTGACGCTGCTG"
Result: 4.66

Query: Tell me binding signal reported for "CCGATTAACATCAGGGGGACAAATGATGTTAATCGGGTCTTGATTCGCTTGACGCTGCTG"
Result: 4.19

Query: Give a short answer stating reported binding signal for "CCGATTAACATCAGGGAATCTCATGATGTTAATCGGGTCTTGATTCGCTTGACGCTGCTG" .
Result: 3.46

Query: Give the reported value of binding signal for this record: "CCGATTAACATCAGGGGGAATTATGATGTTAATCGGGTCTTGATTCGCTTGACGCTGCTG"
Result: 7

Query: Return binding signal for the following sequence: "CCGATTAACATCAAAAAATCCCCTGATGTTAATCGGGTCTTGATTCGCTTGACGCTGCTG"
Result: 9.56

Query: Provide binding signal value for the following sequence: "CCGATTAACATCAGTATTTCCCATGATGTTAATCGGGTCTTGATTCGCTTGACGCTGCTG"
Result: 3.73

Query: Given the sequence "CCGATTAACATCAATTCCCCCCCTGATGTTAATCGGGTCTTGATTCGCTTGACGCTGCTG" , write its reported binding signal.
Result: 6.45

Query: Answer with reported binding signal of "CCGATTAACATCAGGACTTGCCCTGATGTTAATCGGGTCTTGATTCGCTTGACGCTGCTG"
Result: 4.8

Query: Please supply the value of reported binding signal for the item "CCGATTAACATCAGGGATTTACATGATGTTAATCGGGTCTTGATTCGCTTGACGCTGCTG"
Result: 3.34

Query: Note down binding signal recorded for "CCGATTAACATCAAGGATTCCCGTGATGTTAATCGGGTCTTGATTCGCTTGACGCTGCTG"
Result: 3.92

Query: Please give measured binding signal of the following entry: "CCGATTAACATCAGAAGTTCCCCTGATGTTAATCGGGTCTTGATTCGCTTGACGCTGCTG"
Result: 7.04

Query: Given "CCGATTAACATCAGGACTATCCCTGATGTTAATCGGGTCTTGATTCGCTTGACGCTGCTG" , respond with its binding signal.
Result: 5.97

Query: Fill in binding signal for record "CCGATTAACATCAAAAAGTCCCGTGATGTTAATCGGGTCTTGATTCGCTTGACGCTGCTG"
Result: 8.05

Values were extracted from paper PMC5700166.
